- Experiment: Part 3: effect of CYP1A2 inhibitor fluvoxamine on avadomide PK
- Assay type: in vivo, human (healthy adult subjects)
- Study conditions: human, plasma, oral
Assay readout: half-life (h)

# Compound, Assay readout, Units symbol, Measured result
rows = [
    ("Cc1nc2cccc(N)c2c(=O)n1C1CCC(=O)NC1=O (stereo not shown) [Avadomide]", "half-life", "h", 13.7),
]

* * *

- Experiment: Part 4: effect of CYP3A4 inducer rifampin on avadomide PK
- Type: in vivo, human (healthy adult subjects)
- Study conditions: human, plasma, oral

# Compound, Vd/F (L)
measured = [
    ("Cc1nc2cccc(N)c2c(=O)n1C1CCC(=O)NC1=O (stereo not shown) [Avadomide]", 57.3),
]

* * *

- Experiment: Part 4: effect of CYP3A4 inducer rifampin on avadomide PK
- Format: in vivo, human (healthy adult subjects)
- Study conditions: human, plasma, oral, AUC0-t, Geometric LS Means, avadomide + rifampin, N 18, ANOVA

# Compound, AUC(0-t) [ng·h/mL]
records = [
    ("Cc1nc2cccc(N)c2c(=O)n1C1CCC(=O)NC1=O (stereo not shown) [Avadomide]", 428),
]

* * *

- Experiment: Part 4: effect of CYP3A4 inducer rifampin on avadomide PK
- Format: in vivo, human (healthy adult subjects)
- Study conditions: human, plasma, oral, 3 mg, AUC0-inf, Geometric LS Means, avadomide alone, Part 4, N 19, ANOVA

# Compound, AUC(0-inf), ng·h/mL
rows = [
    ("Cc1nc2cccc(N)c2c(=O)n1C1CCC(=O)NC1=O (stereo not shown) [Avadomide]", 733),
]

* * *

- Experiment: Part 2: effect of CYP3A inhibitor itraconazole on avadomide PK
- Format: in vivo, human (healthy adult subjects)
- Study conditions: human, plasma, po, 3 mg

# Molecule, Units symbol, Cmax
data = [
    ("Cc1nc2cccc(N)c2c(=O)n1C1CCC(=O)NC1=O (stereo not shown) [Avadomide]", "ng/mL", 70.8),
]

* * *

- Experiment: Part 4: effect of CYP3A4 inducer rifampin on avadomide PK
- Type: in vivo, human (healthy adult subjects)
- Study conditions: human, plasma, oral, 3 mg, Cmax, Geometric LS Means, avadomide alone, Part 4, N 19, ANOVA

# Compound, Cmax [ng/mL]
records = [
    ("Cc1nc2cccc(N)c2c(=O)n1C1CCC(=O)NC1=O (stereo not shown) [Avadomide]", 74.8),
]

* * *

- Experiment: Part 2: effect of CYP3A inhibitor itraconazole on avadomide PK
- Type: in vivo, human (healthy adult subjects)
- Study conditions: human, plasma, po, 3 mg
Assay readout: Vd/F (L)

# Molecule, Measured result
records = [
    ("Cc1nc2cccc(N)c2c(=O)n1C1CCC(=O)NC1=O (stereo not shown) [Avadomide]", 54.7),
]

* * *

- Experiment: Part 3: effect of CYP1A2 inhibitor fluvoxamine on avadomide PK
- Assay type: in vivo, human (healthy adult subjects)
- Study conditions: human, plasma, oral, 3 mg, AUC0-inf, Geometric LS Means, avadomide alone, Part 3, N 18, ANOVA
Assay readout: AUC(0-inf) (ng·h/mL)

# Molecule, Assay readout, Units symbol, Measured result
measured = [
    ("Cc1nc2cccc(N)c2c(=O)n1C1CCC(=O)NC1=O (stereo not shown) [Avadomide]", "AUC(0-inf)", "ng·h/mL", 709),
]

* * *

- Experiment: Part 4: effect of CYP3A4 inducer rifampin on avadomide PK
- Type: in vivo, human (healthy adult subjects)
- Study conditions: human, plasma, oral, AUC0-inf, Geometric LS Means, avadomide + rifampin, N 18, ANOVA
Assay readout: AUC(0-inf)

# Compound, Assay readout, Measured result
data = [
    ("Cc1nc2cccc(N)c2c(=O)n1C1CCC(=O)NC1=O (stereo not shown) [Avadomide]", "AUC(0-inf)", "460 ng·h/mL"),
]

* * *

- Experiment: Part 3: effect of CYP1A2 inhibitor fluvoxamine on avadomide PK
- Assay type: in vivo, human (healthy adult subjects)
- Study conditions: human, plasma, oral, Cmax, Geometric LS Means, avadomide + fluvoxamine, N 18, ANOVA

# Compound, Cmax
measured = [
    ("Cc1nc2cccc(N)c2c(=O)n1C1CCC(=O)NC1=O (stereo not shown) [Avadomide]", "75.6 ng/mL"),
]

* * *

- Experiment: Part 2: effect of CYP3A inhibitor itraconazole on avadomide PK
- Format: in vivo, human (healthy adult subjects)
- Study conditions: human, plasma, po, 3 mg
Assay readout: AUC(0-t) (ng·h/mL)

# Molecule, Measured result
measured = [
    ("Cc1nc2cccc(N)c2c(=O)n1C1CCC(=O)NC1=O (stereo not shown) [Avadomide]", 675),
]

* * *

- Experiment: Part 4: effect of CYP3A4 inducer rifampin on avadomide PK
- Type: in vivo, human (healthy adult subjects)
- Study conditions: human, plasma, oral, 3 mg, AUC0-t, Geometric LS Means, avadomide alone, Part 4, N 19, ANOVA

# Compound, AUC(0-t) (ng·h/mL)
rows = [
    ("Cc1nc2cccc(N)c2c(=O)n1C1CCC(=O)NC1=O (stereo not shown) [Avadomide]", 687),
]

* * *

- Experiment: Part 4: effect of CYP3A4 inducer rifampin on avadomide PK
- Assay type: in vivo, human (healthy adult subjects)
- Study conditions: human, plasma, oral

# Molecule, Units symbol, half-life
rows = [
    ("Cc1nc2cccc(N)c2c(=O)n1C1CCC(=O)NC1=O (stereo not shown) [Avadomide]", "h", 6.08),
]

* * *

- Experiment: Part 2: effect of CYP3A inhibitor itraconazole on avadomide PK
- Format: in vivo, human (healthy adult subjects)
- Study conditions: human, plasma, po, 3 mg
Assay readout: half-life (h)

# Compound, Assay readout, Units symbol, Measured result
rows = [
    ("Cc1nc2cccc(N)c2c(=O)n1C1CCC(=O)NC1=O (stereo not shown) [Avadomide]", "half-life", "h", 8.94),
]

* * *

- Experiment: Part 3: effect of CYP1A2 inhibitor fluvoxamine on avadomide PK
- Type: in vivo, human (healthy adult subjects)
- Study conditions: human, plasma, oral, AUC0-t, Geometric LS Means, avadomide + fluvoxamine, N 18, ANOVA

# Molecule, Units symbol, AUC(0-t)
measured = [
    ("Cc1nc2cccc(N)c2c(=O)n1C1CCC(=O)NC1=O (stereo not shown) [Avadomide]", "ng·h/mL", 1070),
]

* * *

- Experiment: Part 3: effect of CYP1A2 inhibitor fluvoxamine on avadomide PK
- Format: in vivo, human (healthy adult subjects)
- Study conditions: human, plasma, oral, 3 mg, AUC0-t, Geometric LS Means, avadomide alone, Part 3, N 18, ANOVA

# Compound, AUC(0-t), ng·h/mL
data = [
    ("Cc1nc2cccc(N)c2c(=O)n1C1CCC(=O)NC1=O (stereo not shown) [Avadomide]", 667),
]

* * *

- Experiment: Part 3: effect of CYP1A2 inhibitor fluvoxamine on avadomide PK
- Format: in vivo, human (healthy adult subjects)
- Study conditions: human, plasma, po, 3 mg

# Molecule, Tmax (min)
measured = [
    ("Cc1nc2cccc(N)c2c(=O)n1C1CCC(=O)NC1=O (stereo not shown) [Avadomide]", 30),
]

* * *

- Experiment: Part 2: effect of CYP3A inhibitor itraconazole on avadomide PK
- Assay type: in vivo, human (healthy adult subjects)
- Study conditions: human, plasma, oral, 3 mg
Assay readout: AUC(0-t) (ng·h/mL)

# Molecule, Measured result
data = [
    ("Cc1nc2cccc(N)c2c(=O)n1C1CCC(=O)NC1=O (stereo not shown) [Avadomide]", 675),
]

* * *

- Experiment: Part 2: effect of CYP3A inhibitor itraconazole on avadomide PK
- Format: in vivo, human (healthy adult subjects)
- Study conditions: human, plasma, oral
Assay readout: Vd/F (L)

# Compound, Assay readout, Measured result
data = [
    ("Cc1nc2cccc(N)c2c(=O)n1C1CCC(=O)NC1=O (stereo not shown) [Avadomide]", "Vd/F", 53.8),
]

* * *

- Experiment: Part 3: effect of CYP1A2 inhibitor fluvoxamine on avadomide PK
- Type: in vivo, human (healthy adult subjects)
- Study conditions: human, plasma, po, 3 mg

# Compound, Vd/F [L]
measured = [
    ("Cc1nc2cccc(N)c2c(=O)n1C1CCC(=O)NC1=O (stereo not shown) [Avadomide]", 55.2),
]

* * *

- Experiment: Part 4: effect of CYP3A4 inducer rifampin on avadomide PK
- Format: in vivo, human (healthy adult subjects)
- Study conditions: human, plasma, po, 3 mg

# Molecule, Units symbol, half-life
measured = [
    ("Cc1nc2cccc(N)c2c(=O)n1C1CCC(=O)NC1=O (stereo not shown) [Avadomide]", "h", 9.29),
]

* * *

- Experiment: Part 3: effect of CYP1A2 inhibitor fluvoxamine on avadomide PK
- Assay type: in vivo, human (healthy adult subjects)
- Study conditions: human, plasma, oral

# Molecule, Tmax, min
rows = [
    ("Cc1nc2cccc(N)c2c(=O)n1C1CCC(=O)NC1=O (stereo not shown) [Avadomide]", 47.4),
]

* * *

- Experiment: Part 4: effect of CYP3A4 inducer rifampin on avadomide PK
- Format: in vivo, human (healthy adult subjects)
- Study conditions: human, plasma, oral

# Compound, Tmax
rows = [
    ("Cc1nc2cccc(N)c2c(=O)n1C1CCC(=O)NC1=O (stereo not shown) [Avadomide]", "31.8 min"),
]

src = paper PMC6851786
